The measured values listed here are drawn from patent US5700799A.

Overview of reported ED50 across a group of compounds:
tested on: S. aureus UC 9213; test: Murine Assay procedure: in vivo antimicrobial activity, survival of infected mice (S. aureus UC 9213); set-up: species or system Staphylococcus aureus (infected female mice); settings: Staphylococcus aureus, UC9213, 144 h, oral, dosed 1 h and 5 h after i.p. infection, survival daily for six days, probit
Note: unit mg/kg is implicit; provide only the numeric part.

Before answering, review these 3 worked examples.
{"Compound": "COCCN1CCN(c2c(F)cc(N3C[C@H](CNC(C)=O)OC3=O)cc2F)CC1 [Example 37]", "Readout Value": 12.6}
{"Compound": "CC(=O)NCC1CN(c2ccc(N3CCN(C(=O)OCCO)CC3)c(F)c2)C(=O)O1 (centres unmarked) [Example 6]", "Readout Value": 12}
{"Compound": "COC(=O)N1CCN(c2ccc(N3CC(CNC(C)=O)OC3=O)cc2F)CC1 (centres unmarked) [Example 1]", "Readout Value": 3.8}

Ask | # ED50 lookup, item CC(=O)NCC1CN(c2ccc(N3CCN(C(=O)c4ccccc4)CC3)c(F)c2)C(=O)O1 (centres unmarked) [Example 7]
Reply | 12

Ask | # ED50 lookup, item COCCN1CCN(c2ccc(N3C[C@H](CNC(C)=O)OC3=O)cc2F)CC1 [Example 36]
Reply | 7.9

Ask | # ED50 lookup, item CC(=O)CCC(=O)N1CCN(c2ccc(N3CC(CNC(C)=O)OC3=O)cc2F)CC1 (racemic) [Example 10]
Reply | 9.4

Ask | # ED50 lookup, item COC(=O)N1CCN(c2ccc(N3CC(CNC(C)=O)OC3=O)cc2)CC1 (centres unmarked) [Example 3]
Reply | 10.4

Ask | # ED50 lookup, item CC(=O)NCC1CN(c2ccc(N3CCN(CCC#N)CC3)c(F)c2)C(=O)O1 (centres unmarked) [Example 5]
Reply | 10
